Numbers sourced from the RNAGym collection of RNA variant scans (doi:10.1073/pnas.2313332121).

B1: TPR 5TU (parent)
chain: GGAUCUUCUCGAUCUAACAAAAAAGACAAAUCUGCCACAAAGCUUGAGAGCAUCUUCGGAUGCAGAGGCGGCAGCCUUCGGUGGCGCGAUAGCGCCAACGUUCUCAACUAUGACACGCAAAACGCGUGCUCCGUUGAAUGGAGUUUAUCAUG

# Variants of: B1
# method.summary: polymerase ribozyme fitness, log enrichment relative to wild type (log ratio); higher = more active; in vitro selection for triplet polymerase activity
This sample holds only a part of the variants without activity.
Exercise: for every item that follows, state its recorded polymerase ribozyme fitness (log ratio).

Q: Any idea what polymerase ribozyme fitness (log ratio) was measured for A40C U82C G94U ?
A: -0.916

// each variant listed below needs its polymerase ribozyme fitness (log ratio)
1. A16C G112U A150U
2. G58A A91C
3. C5A U13G G81U G92C U145G
4. G62U C132A

A:
["≤ -4.2", "≤ -4.2", -2.12, "≤ -4.2"]
